Data provenance: patent US20240247080A1

Target: T1, human neuropeptide Y2 receptor (human, UniProt P49146 1-381)
T1 sequence (looked up): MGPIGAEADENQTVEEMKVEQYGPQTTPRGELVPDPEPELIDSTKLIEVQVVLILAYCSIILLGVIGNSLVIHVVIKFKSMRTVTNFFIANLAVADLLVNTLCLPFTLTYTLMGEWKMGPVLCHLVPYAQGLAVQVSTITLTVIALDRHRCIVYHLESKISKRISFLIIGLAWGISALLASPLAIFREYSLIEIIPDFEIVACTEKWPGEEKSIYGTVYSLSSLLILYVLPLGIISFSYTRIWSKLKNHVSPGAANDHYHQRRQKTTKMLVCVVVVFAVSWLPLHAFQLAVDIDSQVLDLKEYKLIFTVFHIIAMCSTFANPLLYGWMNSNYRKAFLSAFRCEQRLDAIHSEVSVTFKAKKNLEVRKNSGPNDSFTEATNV
Assay: cell-based or functional assay
Starred links: 1 amine or outer side, 2 acyl side, 3 side chain; linkers in the order of their positions; H or OH if unused. Non-standard residues stand in square brackets, D forms with d. Groups on a side chain read outwards from the residue. No end group written: not given here. *: point of attachment. C20 diacid = O=C(O)CCCCCCCCCCCCCCCCCCC(=O)*; C18 diacid = O=C(O)CCCCCCCCCCCCCCCCC(=O)*; γGlu = O=C(O)[C@H](CCC(=O)[*:2])N[*:1]; εLys = N[C@@H](CCCCN[*:1])C(=O)[*:2]; AEEA = NCCOCCOCC(=O)O; Aib = CC(C)(N)C(=O)O; Ahx = NCCCCCC(=O)O
Consider the following binders; for each one, report its EC50 hNPY2R 100% hP (CreLuc).

Look over these answered cases.
binder	EC50 hNPY2R 100% hP (CreLuc)
Y[Aib]EGTFTSDYSI[Aib]LEKQAQ[Aib]AFVEWLIK([εLys-γGlu-γGlu-γGlu-γGlu-γGlu-γGlu-γGlu-C20 diacid])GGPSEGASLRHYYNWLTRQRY-NH2 (also: TFA salt) [Compound 288]	36.8 nM
Y[Aib]EGTFTSDYSI[Aib]LEKQAQ[Aib]AFVEWLIK([Ahx-γGlu-γGlu-γGlu-γGlu-γGlu-γGlu-C18 diacid])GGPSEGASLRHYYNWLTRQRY-NH2 (also: TFA salt) [Compound 303]	122 nM
Y[Aib]EGTFTSDYSI[Aib]LEKQAQ[Aib]EFVEWLIK([AEEA-AEEA-γGlu-C18 diacid])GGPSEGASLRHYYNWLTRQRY-NH2 (also: TFA salt) [Compound 282]	71.4 nM

Next item in the queue.
Requested read-out: EC50 hNPY2R 100% hP (CreLuc). Entry: YXEGTFTSDYSIXLEKQAQXAFVEWLIKGGPSEGASLRHYYNWLTRXRY (Aib at 2, 13, 20; bHGln (beta-homo-L-glutamine) at 47; K28 side chain acylated with C20DA-gGlu-gGlu-gGlu-gGlu-gGlu-gGlu-eLys; C-terminal amide (NH2)) [Compound 277]
1120 nM
